Test: yeast display, Sf9 membrane polyspecificity reagent, FACS + sequencing; frameworks hold sequencing errors
Endpoint name: polyreactivity (PSR sort gate)

QVQLVESGGGLVQAGGSLRLSCAASGGTFPRYAMGWYRQAPGKERELVAAITRSGGRTYYADSVKGRFTISRDNAKNTVYLQMNSLKPEDTAVYYCAADAPDYRMDYWGQGTQVTVSS; high polyreactivity
QVHLVESGGGLVHAGGSLRLTCAASGITSLRYAMGWYRQAPGKEREFVAAIRTIGGSTYYADSVKGRFTISRDNAKNTVYLEMNSLKPEDTPVYYCAALYFLYRSGSSHLDSWGQGTQVTVSS; high polyreactivity
QVQLVESGGGLVQAGGSLRLICAASGYTFYFYAMGWYIQAPGKERELVAAITGGGTTSYADSVKGRFTISRDKAKNTVYLQMNSLKPEDTAVYYCASSVRNNIERYRDYYWGQGTQVTVSS; low polyreactivity
QVQLVESGGGLVQAGGSLRLSCAASGFTFVSYAMGWSRQAPGKERELVATITSDGSTNYADSVKGRFTISRDNAKNTVYLQMNSLKPEDTAVYYCAADIHYYPGYLAYDYWGQGTQVTVSS; low polyreactivity
QVQLVESGGGLVQAGGSLRLSCAASGRIFSYNAMGWYRQAPGKERELVAAITGGGSTNYADSVQGRFTISRDNAKNTVYLHMTSLKPEDTAVYYCAADARGYGYYYWGQGTQVTVSS; high polyreactivity

----------
Experiment: yeast display, Sf9 membrane polyspecificity reagent, FACS + sequencing; frameworks hold sequencing errors
Endpoint name: polyreactivity (PSR sort gate)

QVQLVESGGGLVQAGGSLRLSCAASGRIFGVNAMGRYRQAPGKERELVADISSGGSTYYADSVKGRFTISRDNAKNTVYLQMNSLNPEDTAVYSCAVDKYVFVSYSFYFEYDYWGQGTQVTVSS; low polyreactivity
QVQLVESGAGLVQAGGSLRLSCAASGITFYDYAMAWYRQAPGKERELVAAISRSGITYYADSVKGRFTISRDNAKNTVYLQMNSLKPEVTAVYYCAAGRSFDQSMYYWGQGTQVTVSS; high polyreactivity
QVQLVESWGGLVQAGGSLRLSCAASGITFTVYAMGWYRQPPGKERELVAAITRGTSTYADSVKGRFTISRDNAKNTVYLQMNSLKPEDTAVYYCAARSSPWYTRYRSSELFDYWGQGTQVTVSS; high polyreactivity
QVQLVESGGGLVQAGGSLRLSCAASGSIFDYNVMGWYRKAPGKERELVAAITYNDGSTYYADSVKGRFTISRDNAKNTVYLQMNSLKPEDTAVYYCAADYPGGGIYWYFYVYDYDYWGQGTQVTVSS; low polyreactivity
QVQLVESGGGLVQAGGSLRLSCAASGRIFGVNAMGWYRQAPGKERELVAAITSGGSTNYADSVKGRFTISRDNAKNTVYLQMNSLKPEDTAVYYCAAVNYYWGQGTQVTVSS; low polyreactivity
QVHLVESGGGLVQAGGSLRLSCSASGITFTRYTMGWYRQARGKERELVASIRRSGSTNYADSVKGRFTISRDNAKNTVYLQMNSLKPEDTAVYYCAAVQTGRYYYWGQGTQVTVSS; high polyreactivity
QVQLVESGGGLVQAGGSLRLSFAASGYIFYYNAMGWYRQAPGKERELVAAISRGGNTYYADSVKGRFTISRDNAKNTVYLQMNSLKPEDNAVYYFNARPPNKRYKYGYWGQGTQVTVSS; high polyreactivity
QVQLVESGGGLVQAGGSLRLSCAASGRIFHYNAMGWYRQAPAKERELVAAINRSGGTTNYADSVKGRFTISRDTAKNTVYLEMNSLIPEDTAVYYCNATLPDYWPYYYYLGGDDYWGQGTQVTVSS; low polyreactivity
QVHLVESGGGLVQAGGSLRLSSAPSGSILLINAMGWYRQAPGKERELVAAIRTGGSTYYADSVKGRFTISRDNAKNTVYLQMNSLKPEDTAVYYCNVDYDVQPGGEFDYWGQGTQVTVSS; low polyreactivity
QVQLVESGVGLVQAGGSLRLSCAASGRTFAIYTMGWYRQAPGKERELVARISIRGGSTYYADSVKGRFTISRDTAKITFYLQLTSLKPEDNAVYYCAAVGYFGGYRYDYWGQGTQVSVSS; high polyreactivity
QVQLVESGGGLVQAGGSLRLSCAASGNIFESYGMGWYRQAPGKERELVATINTSSGSTYYADSVKGRFTISRDNAKNTVYLQMNSLKPEDTAVYYCAARFDSFWVEYDYWGQGTQVTVSS; low polyreactivity
QVQLVESVGGLVQAGGSLRLSCAASGRTVGGNAMGWYRQAPGKERELVAAINRSGGTTYYADSVKGRFTISRDNAKNTVYLQMNSLKPEDTAVYYCAARRTVSATRMGYWGQGTQVTVSS; high polyreactivity
QVQLVESGGGLVQAGGSLRLSCAASGRTFLRYTMGWYRQAAGKERELVAVITNGGTRTYYADSVKGRFTISRDNAKNTVYLQMNSLKPEYTAVYYCAARVRYTANYDYWGQGTQVTVSS; high polyreactivity
QVQLVESGGGLVQAGGSLRLSCAASGSTFAWNAMGWYIQAPGKERELVAAISYSGGTTYYADSVKGRFTISRDNAKNTVYLQMNSLKPEDTAVYYCAKWEGHGRNPWGAGTEGDYWGQGTQVTVSS; low polyreactivity
QVQLVESGGGLVQAGGSLRLTCAASGLTFFYYAMGWYRQAPGKERELVAGISRSGGSTYYADSVKGRFTISRDYAKNTVYLQMNSLKPEDTAVYYCAKRTLVASYIYREGEYWGQGTQVTVSS; high polyreactivity
QVQLVESGGGLVQAGGSLRLSCAPSGNIFAINALGWYRQAPGKESELVATITGGGGSTSYADSVKGRFTISRDNAKNTVYLQMNSLKPEDTAVYSCAADTVYYYGEWYDYWNYVWFDYWGQGTQVTVSS; low polyreactivity
QVQLVESGGGLVQAGGSLRLSCAASGSIFNANAMGWYRQAPGKEWELVARITRGGRTNYADSVKGRFTISRDNAKNTVYLQMNSLKPEDTAVYYCAAVYYVGFPHKYDYWGQGTQVNVSS; low polyreactivity
QVQLVESGGGLVQAGGSLRLSCAASGGIFSQYAMGWYRQAPGKERELVAAINSGVGTNYADSVKGRFTISRDNAKNTVFLQMNSLKPEDTAVYYCAATDDRLWTFDVASYRNDYWGQGTQVTVSS; low polyreactivity
QVQLVESGGGLVQAGGILRLSCAASGSIFDFYAMGWYRQAPGKERELVAAISGSGGSTYYADSVKGRFTISRDNAKNTVYLQMNSLKPEDTAVYYCSYYYWGQGTQVTVSS; low polyreactivity
QVQLVESGGGLVQAGGSLRLSCAASGSIFGYYTMGWYRQAPGKERELVAAITRSGATTFYADSVKGRFTISRDKAKNTVYLQMNSLKPEDTAVYYCAAQARGYTRGYWGQGTQVTVSS; high polyreactivity
QVQLVESGGGLVQAGGSLRLSCAASGSTFSIYAMGWYRQAPGKERELVAAISSDSTYYADSVKGRFTISRDNAKNTVYLQMNSLKPEDTAVYYCAADPYFPKYYYWGQGTQVTVSS; low polyreactivity

----------
Assay: yeast display, Sf9 membrane polyspecificity reagent, FACS + sequencing; frameworks hold sequencing errors
Endpoint name: polyreactivity (PSR sort gate)

QVQLVESGGGLVQAGGSLRLSCAASGSTFDGYAMGWYRPAPGKERELVAGISTSGGSTYYADSVKGRFTISRDNAKNTVYLQMNSLKPEDSAVYYCAAEWFDQVKDPAADYISYEYWGQGTQVTVSS; low polyreactivity
QVQLVESGGGLVQAGGSLRLSCAASGRIFGYYPKGCYRPAPGKERELVAAISSGGNTNYADSVKGRFTISRDNAKKTVYLQMNSLKPEDTAVYYCSAYHFSFGWIRVDYWGQGTQVTVSS; high polyreactivity
QVQLEESGGGLVQAGGSLRLSCAASGITFVDYDMGWYRQATGKERELVAAITTGSSTYYADSVKGRFTISRDNAKNTVYLQMNSLKPEDTAVYYCARDLEYDYYQQWSYGYWGQGTQVTVSS; low polyreactivity
QVQLVESGGGLVQSGGILLLSCAASGITFGRNAMGWYRQAPGKEGELVAAISRGGSTNYADSVKGRFTISRDNAKNTVYLQMNRLKPEDTAVYYCATAYRGRAWGYDYWGQGTQVTVSS; high polyreactivity
QVQLVESGGGLVQAGGSLRLSCAASGSIFFEYAMGWSRQAPGKERELVASINRGGGSTYYSDSVKGRFTISRDNAKNTVYLQMNSLKPEDTAVSYCAAQWKYRQSYLDYYSGQGTQVTVSS; low polyreactivity
QVQLVESGGGLVQAGGSLRLSCAASGFTYGRYAMGWYRQAPGKERELVAVISWSGVSTYYADSVKGRFTISRDNAKNTVYLQMNSLKPEDTAVYYCNKRSYHYPYGYDYWGQGTQVTVSS; high polyreactivity
QVQLVESGGGLVQAGGSLRLSCAASGRTFRYYAMGWYRQAPGKERELVAAISSRGNTYYADSVKGRFTISRDNAKNTVYLQMNSLKPEDTAVYYCAAYVYRVQYDFDYWGQGTQVTVSS; high polyreactivity
QVQLVESGGGLVQAGGSLRLSCAASGYTFQHYAMGWYRQAPGKERELVAAITRRGSGTYYADSVKGRFTSSRDNAKNTVYLQMNSLKPEDTAVYYCAAAVGHGVDYWGQGTQVTVSS; high polyreactivity
KVQLVESGGGLVQSGVSLRLSCAASGYTFEYNAMGWYIQAPGKEREFVSTITASGDSTYYAVSVKGRFTMSRDNAKNTVYFQMNSLKPEDTAVYYCAVDCAYLDDYSFTWDDYWGQGTQVTVSS; low polyreactivity
QVQLVESGGGLVQAGGSLRLICAASGTTFLSYAMGWYRQAQGKDRELVAAISWSGGRTYYAHSVKGRFTISRDNAKNTVYLQMNSLKPEDTAVYYCAAPHVPFTKHEYEYWGQGTQVTLSS; low polyreactivity
QVQLVESGGGLVQAGGSLRLSCAASGSTFPTNAMGWYRQAPGKERELVATITSTGSTKYADSVKGRFTISRDNAKNTVYLQMNSLKPEDTAVYYCAADEYAYASRFYWALIHDYWGQGTQVTVSS; low polyreactivity
QVQLVESGGGLVQAGGSLRLSCAASGRISTFYAMGWYRQAPGKERELVAGIRWRGGSTYYADSVKGRFTISRDNAKNTVYLQMNSLKPEDTAVYYCNAVPRRRRYSRLGYWGQGTQVTVSS; high polyreactivity
QVQLVESGGGLVQAGGSLRLSCAASGITFVRNAMGWYRQAPGKERELVAAISGRGGITYYADSVKGRFTISRDNAKNTVYFQMNSLKPEDTAVYYCAASSAGSSYNYWGQGSQVTVSS; high polyreactivity
QVQLVESGGGLVQAGGSLRLSCAATGTFIIYAMGRYRQAPGKERELVATISTGGSTNYADSVKGRFTISRDNAKNTVYLQMNSLKPEDTAVYYCAAEWLYPHDGGYPRPMDYCGQGTQVTVSS; low polyreactivity
QVQLVESGGGLVQAGGSLSLSCAASGSTFYHYAMGWYRQAPGKERELVAAISSSGGRTYYADSVKGRFTISRDNAKYTVYLQMNSLKPEDTAVYYCAARAKTSGSIEDYWGQGTQVTVSS; high polyreactivity
QVQLVESGGGIVQAGGSLRLSCAATGSIFGNYAMGWYRQAPGKERELVAAITSSGGTYYADSVKGRFTISRDNAKNTVYLQMNSLKPEDTAVYYCAARYYSYRHQSVKYGYWGQGTQVTVSS; high polyreactivity
QVQLVESGGGLVQAGGSLRLSCAASGTMGWYRQAPGKERELVAAISQSGGSTYYADSVKGRFTISRDNAKNTVYLQMNSLKPEDTAVYYCAVDPRYGHPRRDYWGQGTQVTVSS; low polyreactivity
QVQLVESGGGLVQAGGSLRLSCAASGSIFTAYAMGWYRQAPGKERELVAAISYGGGSTYYADSVKGRFTISRDNAKNTVYLQMNSLKPEDTAVYYCAAASSGEYGYWGQGTLVTVSS; low polyreactivity
QVQLVESGGGLDQAGGSLRLSCAASGSIFRGYAMGWYRQAPGKERDLVAAINRSGGRTYYADSVKGRFTISRDNAKNTVYLQMNRLKPEDTAVYYCAADYFFYQPSGYDYWGQGTQVTVSS; high polyreactivity
QVQLVESGGGLVQAGGSLRLSCAASGRTFKGYAMGWYRQAPGKEREFVATITSRGDRTYYADSVKGRFTISRDNAKNTVSLQMNSLKPEDTAVYYCNARYYWKQAADYNYWGQGTQVTVSS; low polyreactivity
QVQLVDSGVGLVQAGGSLRLTCAASGITFYYYAMGWYRQAPGKERELVARISSGGSTNYSDSVNGRFTISRDNAKNTVYLQMISLKPEDTAVYYCAAVRHRAMDYWGQGTQVTVSS; low polyreactivity
